readout.type: melting point (°C)

Some solved cases for reference:
>>> value("Cc1cc(-c2sc(N3C[C@@H](C)O[C@@H](C)C3)nc2CNC(=O)c2cc(C)on2)cc(C)n1 [Compound 3]")
208
>>> value("Cc1ccc(-c2sc(N3C[C@@H](C)O[C@@H](C)C3)nc2CNC(=O)C2CCC2)cn1 [Compound 120]")
139
>>> value("Cc1cc(-c2sc(N3C[C@@H](C)O[C@@H](C)C3)nc2CNC(=O)c2cccc(F)c2)ccn1 [Compound 93]")
153

(A) Cc1ccc(-c2sc(N3C[C@@H](C)O[C@@H](C)C3)nc2CNC(=O)c2conc2C)cn1 [Compound 117]
(B) Cc1cc(-c2sc(N3CCOC(C)C3)nc2CNC(=O)c2ccc(F)cc2C)cc(C)n1 (single isomer, unassigned) [Compound 70]
Prompt: Of A and B , whose reported melting point is numerically smaller? Field: selected label. Fill in the label of the entry you choose.
Completion: A
(A: 129 °C, B: 185 °C)

(1) Cc1cc(C(=O)NCc2nc(N3CCOC(C)C3)sc2-c2cc(C)nc(C)c2)on1 (single isomer, unassigned) [Compound 72]
(2) Cc1nocc1C(=O)NCc1nc(N2CCOCC2)sc1-c1ccncc1 [Compound 114]
Prompt: Of 1 and 2 , whose reported melting point is numerically smaller? Field: selected label. Fill in the label of the entry you choose.
Completion: 1
